Test: chemical genetic growth profiling, strain panel (AID 1159580);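 further: tested at 20 µM; growth read once vehicle control cultures reached saturation at 30 °C; 1 = growth at the plate median or of vehicle wells; lower values mean less growth of the strain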
Details: S. cerevisiae deletion strains, growth OD, locus YGL253W, strain hxk2
Screen size: about 5,500 compounds; about 2,000 (36%) were called active. Not shown: some 18% with an inconclusive outcome. No stated cut-off is given here; in the data, active means normalized growth mostly below about 0.91 (no sharp cut-off); inconclusive means no clear call, values can overlap the other calls; inactive means mostly above about 0.92. This is one part of the list.
Reply using exactly one outcome from class 1 (active), class 0 (inactive)

Previously resolved entries follow.
Clc1ccccc1C(c1ccccc1)(c1ccccc1)n1ccnc1 = class 1
C[C@@H]1CC[C@H]2[C@@H](C)C(O)O[C@@H]3O[C@@]4(C)CC[C@@H]1[C@]32OO4 (stereo partly specified) = class 1
CC(=O)O[C@@H]1CC[C@@]2(C)C(CC[C@]3(C)C2CC=C2C4CC(C)(C)CC[C@]4(C(=O)O)CC[C@]23C)C1(C)C (stereo partly specified) = class 0
Cc1ccnc(NS(=O)(=O)c2ccc(N)cc2)n1 = class 0
C#C[C@]1(O)CCC2C3CCC4=C(CCC(=O)C4)C3CC[C@@]21C (stereo partly specified) = class 0
CC(CC(=O)C(O)C(C)(C)O)C1C(=O)CC2(C)C3=CCC4C(C)(C)C(OC5OCC(O)C(O)C5O)CCC45CC35C(O)CC12C (stereo unspecified) = class 0

Exercise: Which result was noted for this compound in the test: Cc1ccc(S(=O)(=O)NC(=O)NN2CC3CCCC3C2)cc1 (stereo unspecified)
Solution: class 0

====

Assay: chemical genetic growth profiling, strain panel (AID 1159580)
Conditions: S. cerevisiae deletion strains, growth OD, locus YNL071W, strain lat1, hits give low values
Among all 5,500 compounds or so, about 2,000 (36%) were called active. Not shown: some 18% with an inconclusive outcome. The list shows a part of the results.
# normalized growth per entry
Please state the value as a number alone, without comment.

Some compounds with recorded normalized growth:
Cc1ccnc(NS(=O)(=O)c2ccc(N)cc2)n1 = 0.987
COC(=O)Nc1nc2ccc(S(=O)c3ccccc3)cc2[nH]1 (stereo unspecified) = 0.994
O=C(Nc1ccc(C(=O)O)c(O)c1)c1ccccc1 = 0.978

Attention now shifts to the item below.
Record CC(C)(Oc1ccc(CCNC(=O)c2ccc(Cl)cc2)cc1)C(=O)O , field normalized growth: 0.994

====

Test: chemical genetic growth profiling, strain panel (AID 1159580)
Conditions: S. cerevisiae deletion strains, growth OD, locus YPL055C, strain LGE1, hits give low values
The campaign covered roughly 5,500 compounds. About 2,000 (36%) were called active. Another 18% or so got no clear call; they are omitted. The list shows a part of the results.
# normalized growth per entry
Please state the value as a number alone, without comment.

Some compounds with recorded normalized growth:
C=C1SC(=Nc2cccc(OC)c2)N(C(=O)C(c2ccccc2)C2CCCC2)C1(C)C (stereo unspecified) = 0.997
C[C@@H]1O[C@@H](O[C@H]2C[C@@H](O)[C@]3(CO)[C@@H]4C(CC[C@]3(O)C2)[C@@]2(O)CC[C@H](C3COC(=O)C3)[C@@]2(C)C[C@H]4O)[C@H](O)[C@H](O)[C@H]1O (stereo partly specified) = 1.01
NCCc1ccc(S(=O)(=O)F)cc1 = 1.02
C#C[C@]1(O)CCC2C3CCC4=CC(=O)CC[C@@H]4C3CC[C@@]21C (stereo partly specified) = 0.997
CC(OCc1ccccc1)C(NC(=O)OC(C)(C)C)C(N)=O (stereo unspecified) = 1.02

Record C[C@]12CCC(=O)C=C1CCC1C2[C@@H](O)C[C@@]2(C)C1CC[C@]2(O)C(=O)CO (stereo partly specified) , field normalized growth: 1.02

====

# normalized growth per entry
Assay: chemical genetic growth profiling, strain panel (AID 1159580);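 further: tested at 20 µM; growth read once vehicle control cultures reached saturation at 30 °C; 1 = growth at the plate median or of vehicle wells; lower values mean less growth of the strain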
Conditions: S. cerevisiae deletion strains, growth OD, locus YLR320W, strain mms22, hits give low values
The whole screen tested about 5,500 compounds, of which about 2,000 (36%) were called active. Not shown: some 18% with an inconclusive outcome. The list shows a part of the results.
Please state the value as a number alone, without comment.

Some compounds with recorded normalized growth:
COC(=O)C[C@H]1C(C)(C)C2(O)OC34CC2C(=O)[C@]1(C)C3CC[C@]1(C)C4=CC(=O)O[C@H]1c1ccoc1 (stereo partly specified) = 0.989
O=C1c2c(O)cccc2Cc2cccc(O)c21 = 0.996
Nc1ccc(S(=O)(=O)Nc2cnc3ccccc3n2)cc1 = 1.01

Record C#C[C@]1(O)CCC2C3CCC4=CC(=O)CC[C@@H]4C3CC[C@@]21C (stereo partly specified) , field normalized growth: 0.98

Record N=C(N)SCCN , field normalized growth: 0.997

Record CC1(C)CC[C@]2(C(=O)O)CC[C@]3(C)C(=CCC4[C@@]5(C)CC[C@@H](O)C(C)(C)C5CC[C@]43C)C2C1 (stereo partly specified) , field normalized growth: 1.01

Record C/C=C(/C)C(=O)O[C@@H]1[C@H](OC(C)=O)[C@@]2(CO)C(CC1(C)C)C1=CCC3[C@@]4(C)CC[C@H](O[C@@H]5O[C@H](C(=O)O)[C@@H](O[C@@H]6O[C@H](CO)[C@@H](O)[C@H](O)[C@H]6O)[C@H](O)[C@H]5O[C@@H]5O[C@H](CO)[C@@H](O)[C@H](O)[C@H]5O)[C@](C)(CO)C4CC[C@@]3(C)[C@]1(C)C[C@H]2O (stereo partly specified) , field normalized growth: 0.973

Record CC(C)CCCC1(C)C=Cc2c(O)c3c(c(CCC(C)C)c2O1)OC12C(CC4CC1C(C)(C)OC2(CCC(C)C(=O)O)C4O)C3=O (stereo unspecified) , field normalized growth: 0.99

Record C[C@H]1[C@H](C)CC[C@]2(CO)CC[C@]3(C)C(=CCC4[C@@]5(C)CC[C@H](O)C(C)(C)C5CC[C@]43C)[C@H]12 (stereo partly specified) , field normalized growth: 0.987

Record C[C@@H]1CC[C@]2(C(=O)O)CC[C@]3(C)C(=CCC4[C@@]5(C)CC[C@H](O)C(C)(C)C5CC[C@]43C)C2[C@H]1C (stereo partly specified) , field normalized growth: 1.01

Record CC1(C)CC[C@@]2(C(=O)O)C(C1)C1=CCC3[C@@]4(C)CC[C@H](O)C(C)(C)C4CC[C@@]3(C)[C@]1(C)C[C@@H]2O (stereo partly specified) , field normalized growth: 1.02

====

Assay: chemical genetic growth profiling, strain panel (AID 1159580);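 further: tested at 20 µM; growth read once vehicle control cultures reached saturation at 30 °C; 1 = growth at the plate median or of vehicle wells; lower values mean less growth of the strain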
Conditions: S. cerevisiae deletion strains, growth OD, locus YOR061W, strain CKA2
Screen size: about 5,500 compounds; about 2,000 (36%) were called active. Not shown: some 18% with an inconclusive outcome. Rule as the data show it: active = normalized growth mostly below about 0.91 (no sharp cut-off); inconclusive = no clear call, values can overlap the other calls; inactive = mostly above about 0.92. The list shows a part of the results.
Reply using exactly one outcome from active, inactive

Cc1cc(O)c2c(c1)Cc1cccc(O)c1C2=O = inactive

Exercise: Which result was noted for this molecule in the test: C[C@@H]1OC(O[C@H]2[C@H](O)[C@@H](O)[C@H](OC[C@H]3O[C@@H](OC(=O)[C@]45CCC(C)(C)CC4C4=CCC6[C@@]7(C)CC[C@H](OC8OC[C@H](O)[C@H](O)[C@H]8OC8O[C@@H](C)[C@H](O)[C@@H](O)[C@H]8O)[C@@](C)(CO)C7CC[C@@]6(C)[C@]4(C)CC5)[C@H](O)[C@@H](O)[C@@H]3O)O[C@@H]2CO)[C@H](O)[C@H](O)[C@H]1O (stereo partly drawn)
Solution: inactive

Exercise: Which result was noted for this molecule in the test: C[C@@H]1CC[C@H]2[C@@H](C)C(O)O[C@@H]3O[C@@]4(C)CC[C@@H]1[C@]32OO4 (stereo partly drawn)
Solution: active

Exercise: Which result was noted for this molecule in the test: COC(=O)Nc1nc2ccc(C(=O)c3ccccc3)cc2[nH]1
Solution: inactive

Exercise: Which result was noted for this molecule in the test: NC(Cc1c[nH]c2ccccc12)C(=O)O (stereo not drawn)
Solution: inactive

Exercise: Which result was noted for this molecule in the test: CC(C)(Oc1ccc(CCNC(=O)c2ccc(Cl)cc2)cc1)C(=O)O
Solution: inactive

Exercise: Which result was noted for this molecule in the test: C=CCc1c(CCC)nc(-c2ccccn2)[nH]c1=O
Solution: inactive

Exercise: Which result was noted for this molecule in the test: COc1ccc2[nH]cc(CCN)c2c1
Solution: inactive

====

# normalized growth per entry
Assay: chemical genetic growth profiling, strain panel (AID 1159580);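 further: tested at 20 µM; growth read once vehicle control cultures reached saturation at 30 °C; 1 = growth at the plate median or of vehicle wells; lower values mean less growth of the strain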
Conditions: S. cerevisiae deletion strains, growth OD, locus YNL153C, strain GIM3, hits give low values
The campaign covered roughly 5,500 compounds. About 2,000 (36%) were called active. Roughly 18% stayed inconclusive and do not appear here. This is one part of the list.
Please state the value as a number alone, without comment.

Some compounds with recorded normalized growth:
O=C(O)CSCC(=O)NC1CCN(Cc2ccccc2)CC1 = 1.01
O=C(Nc1cc2cc([N+](=O)[O-])ccc2oc1=O)c1c(F)cccc1F = 1.02
CCN(CC)c1ccc(NC(=O)c2c(F)cccc2F)c(N(CC)CC)n1 = 0.991
O=C(NC1CCN(Cc2ccc(Cl)c(Cl)c2)CC1)c1ccccc1 = 0.988

Attention now shifts to the item below.
Record O=c1cc(CO)occ1O , field normalized growth: 1.01
